# measuredTarget: Neuropeptide Y receptor type 2 (Homo sapiens) (UniProt P49146)
# Sequence (P49146 whole entry, looked up): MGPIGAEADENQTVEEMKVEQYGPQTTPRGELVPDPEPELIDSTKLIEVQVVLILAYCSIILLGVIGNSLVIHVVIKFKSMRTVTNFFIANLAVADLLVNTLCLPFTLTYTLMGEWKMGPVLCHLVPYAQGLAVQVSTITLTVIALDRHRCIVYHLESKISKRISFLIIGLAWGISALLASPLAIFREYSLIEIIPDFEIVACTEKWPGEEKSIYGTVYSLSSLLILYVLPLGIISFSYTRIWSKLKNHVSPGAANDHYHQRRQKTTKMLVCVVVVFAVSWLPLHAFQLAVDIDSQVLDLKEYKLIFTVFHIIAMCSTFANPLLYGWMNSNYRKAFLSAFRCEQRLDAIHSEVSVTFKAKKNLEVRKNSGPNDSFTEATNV
# methodNotes: blockers of human neuropeptide Y Y2 receptor – cell-based, primary screen (AID 793)
# conditionNotes: NPY-Y2 expressing cells, antagonist mode; at 2.7 µM
In all, about 140,000 compounds went through this assay and about 1,400 (1%) were called active. Rule as the data show it: active = inhibition above about 17%; inactive = the rest. The entries come from a sample that favours actives as a whole.
Tick one outcome: true = active, false = inactive

{"compound": "Cc1cccc(C)c1NC(=O)C(c1ccccc1)N1CC(=O)Nc2ccccc21 (configuration not stated)", "classLabel": "false"}
{"compound": "Cc1ccc(C(C(=O)NCc2ccco2)N(CC2CCCO2)C(=O)Cn2nnc3ccccc32)cc1 (configuration not stated)", "classLabel": "false"}
{"compound": "CCn1nc(C)c(/C=N/NC(=O)Cc2ccc(Cl)cc2)c1C", "classLabel": "false"}

Input line: In this assay, the call recorded for `CCCn1c(N)c(C(=O)CSc2nnc(-c3cccnc3)n2-c2ccc(C)cc2C)c(=O)[nH]c1=O` was what?
Output line: false
